System: MSSP (Methicillin-Susceptible Staphylococcus pseudintermedius)
ASSAY INFO: MIC against selected strains of MSSP
Type: cell-based
Set-up: key: MIC in μM (first well with no visible growth)
EXPERIMENTAL CONTEXT: strain 72191, Table 3
Method: Peptides according to SEQ ID NOs as listed in Table 1 were prepared by a commercial manufacturer (CS Bio, Menlo Park, Calif.) using solid phase synthesis. Antimicrobial activity was assessed by determining the Minimal Inhibitory Concentration (MIC) against S. aureus and E. coli. Briefly, Microbroth MICs were performed using CLSI methodology (VET01-S2). […] The MIC was determined visually at the first well of no visible growth at the corresponding concentration. […]
Measured MIC MSSP 72191, listed per entry for reference.
Kindly provide the number alone.

4 (KFCFRVCYRGICYRRCRD; Artificial antimicrobial peptide) [compound 4]; 0.8
8 (KWCFRVCYRGACYRRCRD; Artificial Antimicrobial peptide) [compound 8]; 1.6
96 (KWCFRVCYGRICYRRCRD; Artificial Antimicrobial peptide) [compound 96]; 1.6
2 (RWCFRVCYRGICYRRCRD; Artificial antimicrobial peptide) [compound 2]; 1.6
5 (KWCFYVCYRGICYRRCRD; Artificial Antimicrobial peptide) [compound 5]; 1.6

Query: Hello, I am looking for reported MIC MSSP 72191 with MSSP (Methicillin-Susceptible Staphylococcus pseudintermedius) for 6 (KWCFRVCRRGICYRRCRD; Artificial Antimicrobial peptide) [compound 6] . Could you help?
Result: 3.1

Query: Hello, I am looking for reported MIC MSSP 72191 with MSSP (Methicillin-Susceptible Staphylococcus pseudintermedius) for 11 (KWCFRVCYRGICYRRCND; Artificial Antimicrobial peptide) [compound 11] . Could you help?
Result: 0.8

Query: Hello, I am looking for reported MIC MSSP 72191 with MSSP (Methicillin-Susceptible Staphylococcus pseudintermedius) for 7 (KWCFRVCYRGVCYRRCRD; Artificial Antimicrobial peptide) [compound 7] . Could you help?
Result: 1.6

Query: Hello, I am looking for reported MIC MSSP 72191 with MSSP (Methicillin-Susceptible Staphylococcus pseudintermedius) for 10 (KWCFRVCYRGICYHRCRD; Artificial Antimicrobial peptide) [compound 10] . Could you help?
Result: 1.6

Query: Hello, I am looking for reported MIC MSSP 72191 with MSSP (Methicillin-Susceptible Staphylococcus pseudintermedius) for 3 (GWCFRVCYRGICYRRCRD; Artificial Antimicrobial peptide) [compound 3] . Could you help?
Result: 1.6

Query: Hello, I am looking for reported MIC MSSP 72191 with MSSP (Methicillin-Susceptible Staphylococcus pseudintermedius) for 1 (KWCFRVCYRGICYRRCRD; Antimicrobial peptide) [compound 1] . Could you help?
Result: 1.6

Query: Hello, I am looking for reported MIC MSSP 72191 with MSSP (Methicillin-Susceptible Staphylococcus pseudintermedius) for 9 (KWCFRVCYRGFCYRRCRD; Artificial Antimicrobial peptide) [compound 9] . Could you help?
Result: 1.6
